Biological target: T1, human insulin (human, UniProt P01308 25-54; P01308 90-110, limits assumed)
T1 construct: Coated antigen of the polyreactivity ('PK-risk indicator') ELISA
T1 sequence (P01308 25-54 limits assumed, chain 1 of 2): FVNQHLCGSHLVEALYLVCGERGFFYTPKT
T1 sequence (P01308 90-110 limits assumed, chain 2 of 2): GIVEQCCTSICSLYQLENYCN
Experiment: ELISA on human insulin (development risk, polyreactivity), binding score
observable: binding result

>  <binder>
MH33 (antibody, human IgG4, V domains shown, Deimmunized MH5 derivative, human IgG4(S228P)/Ckappa IgG) VH: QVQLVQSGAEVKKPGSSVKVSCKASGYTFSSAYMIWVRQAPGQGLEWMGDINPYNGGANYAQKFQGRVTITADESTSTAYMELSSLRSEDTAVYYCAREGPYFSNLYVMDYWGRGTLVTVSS VL: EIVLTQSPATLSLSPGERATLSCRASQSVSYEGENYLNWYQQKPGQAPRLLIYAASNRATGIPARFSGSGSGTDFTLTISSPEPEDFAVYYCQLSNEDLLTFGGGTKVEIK

>  <measured>
no binding

$$$$
>  <binder>
MH37 (antibody, human IgG4, V domains shown, Deimmunized MH5 derivative, human IgG4(S228P)/Ckappa IgG) VH: QVQLVQSGAEVKKPGSSVKVSCKASGYTFSSSYMIWVRQAPGQGLEWMGDINPYNGGANYAQKFQGRVTITADESTSTAYMELSSLRSEDTAVYYCAREGPYFSNLYVMDYWGRGTLVTVSS VL: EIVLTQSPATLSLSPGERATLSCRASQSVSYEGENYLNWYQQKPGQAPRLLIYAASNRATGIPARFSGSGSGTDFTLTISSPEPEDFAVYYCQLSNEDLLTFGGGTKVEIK

>  <measured>
no binding

$$$$
>  <binder>
murine anti-CSF1R antibody 0301 (mu0301), v-domains in human IgG4(S228P) format (antibody, V domains shown) VH: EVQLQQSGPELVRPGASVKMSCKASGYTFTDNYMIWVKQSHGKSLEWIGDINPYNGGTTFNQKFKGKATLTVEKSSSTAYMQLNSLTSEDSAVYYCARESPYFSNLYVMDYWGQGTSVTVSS VL: NIVLTQSPASLAVSLGQRATISCKASQSVDYDGDNYMNWYQQKPGQPPKLLIYAASNLESGIPARFSGSGSGTDFTLNIHPVEEEDAATYYCHLSNEDLSTFGGGTKLEIK

>  <measured>
no binding

$$$$
